systemName: Ras GEF SOS (Son of Sevenless) (Homo sapiens)
Sequence (Q07889 564-1049 limits assumed): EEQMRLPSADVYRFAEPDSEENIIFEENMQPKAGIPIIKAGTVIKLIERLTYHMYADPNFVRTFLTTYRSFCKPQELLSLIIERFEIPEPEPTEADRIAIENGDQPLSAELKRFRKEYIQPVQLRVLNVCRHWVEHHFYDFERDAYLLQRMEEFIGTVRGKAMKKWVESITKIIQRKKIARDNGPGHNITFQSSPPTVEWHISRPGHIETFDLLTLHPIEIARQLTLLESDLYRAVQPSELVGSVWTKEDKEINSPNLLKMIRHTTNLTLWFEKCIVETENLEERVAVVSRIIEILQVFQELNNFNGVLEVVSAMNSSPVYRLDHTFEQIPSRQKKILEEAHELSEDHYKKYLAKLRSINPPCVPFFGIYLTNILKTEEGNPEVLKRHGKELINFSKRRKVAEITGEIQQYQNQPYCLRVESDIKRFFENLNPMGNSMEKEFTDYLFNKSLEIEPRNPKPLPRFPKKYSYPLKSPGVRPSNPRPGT
Sequence (P01112 1-166 partner limits assumed): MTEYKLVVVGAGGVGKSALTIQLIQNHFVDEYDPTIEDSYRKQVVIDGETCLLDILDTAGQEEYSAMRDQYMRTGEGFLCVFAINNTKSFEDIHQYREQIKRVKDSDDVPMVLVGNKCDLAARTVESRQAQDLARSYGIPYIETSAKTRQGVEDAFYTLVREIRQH
assayNotes: SOS-mediated nucleotide exchange on Ras (BODIPY-GDP fluorescence)
appliedConditions: SOS-mediated exchange of BODIPY-GDP for GTP on Ras
Where a name gives a salt, the structure may show the parent alone.
measureName: EC50

{"compound": "Cc1cc2nc(N3CCN(C)CC3)n(Cc3ccc(F)c(Cl)c3)c2cc1C [Example 27, trifluoroacetate]", "EC50": "30 to 100 µM"}
{"compound": "Cc1cc(Cn2c(N3CCNCC3)nc3c(-c4ccnn4-c4ccc(C(C)(C)C)cc4)cc(Cl)cc32)cc(C)c1F [Example 178, trifluoroacetate]", "EC50": "5 to 30 µM"}
{"compound": "CCCNCc1c(C)c(C)cc2c1nc(N1CCNCC1)n2Cc1cc(C)c(F)c(C)c1 [Example 132, trifluoroacetate]", "EC50": "< 1 µM"}

Query EC50 for N[C@H](c1cc(Cl)cc2c1nc(N1CCNCC1)n2Cc1ccc(F)c(Cl)c1)C1CC1 [Example 167, trifluoroacetate]
< 1 µM

Query EC50 for Cc1cc(Cn2c(N3CCNCC3)nc3c(C#Cc4ccccc4)cc(Cl)cc32)cc(C)c1F [Example 123, trifluoroacetate]
1 to 5 µM

Query EC50 for CNCCN(C)c1nc2cc(C)c(C)cc2n1Cc1cc(C)c(F)c(C)c1 [Example 45, trifluoroacetate]
5 to 30 µM

Query EC50 for Cc1cc2nc(NCCN)n(Cc3cc(C)c(F)c(C)c3)c2cc1C [Example 42, trifluoroacetate]
1 to 5 µM
